Multiple publications report pKi for B1 bradykinin receptor (Homo sapiens); what follows is a combined list.
pKi: −log10 of the molar value.
Classification field: enter Y for pKi values not below 8, N for values below it.

A selection of reference data follows.
compound=C[C@@H](NC(=O)C1(NC(=O)c2cncnc2)COC1)c1ncc(-c2cc(Cl)cc(Cl)c2OCC(F)F)cc1F discrete_label=Y
compound=COc1cc(C)c(S(=O)(=O)N(C)CCOCC(=O)N(C)CC2CCN(c3cc[n+](C)cc3)CC2)c(C)c1 discrete_label=Y
compound=COc1cc(C(=O)NC2(C(=O)N[C@H]3CCc4cc(-c5cc(Cl)cc(F)c5-c5noc(C)n5)ccc43)CC2)on1 discrete_label=Y
compound=Cc1nnc(C(=O)NC2(C(=O)N[C@H](C)c3ccc(-c4cc(Cl)cc(Cl)c4OCC(F)F)cc3F)COC2)o1 discrete_label=Y
compound=COc1cc(C)c(S(=O)(=O)N(C)CCOCC(=O)N(C)[C@H]2CC[C@@H](OCCN3CCCC3)CC2)c(C)c1 discrete_label=Y

Now consider the entry below.
Identify whether the reported pKi of the following compound is 8 or greater: COc1cc(C(=O)NC2(C(=O)NC3COc4cc(-c5cc(Cl)cc(F)c5-c5noc(C)n5)ccc43)CC2)on1 (racemic)
N
